# PROCEDURE_SUMMARY: MTT cytotoxicity on normal human dermal fibroblast cells
# Assay type: cell-based
# CONDITION_PARAMETERS: NHDF cells (normal human dermal fibroblasts), highest tested concentration (75 μM), read-out: cell viability
# Procedure: Alpha-MEM and the normal human dermal fibroblast cell line (NHDF) were obtained from Lonza (Lonza, Warsaw, Poland). […] The viability of NHDF cells after treatment with PQA-AZ4 and PQA-AZ-6 was assayed using the previously described methodology. Briefly, 4.5 × 10^3 cells/well were seeded into a 96-multiwell plate and viability was evaluated using the MTT assay. […] Results were expressed as the percentage of survival cells concerning the control (not treated cells).
ENDPOINT_LABEL: viability at 48 h, 75 µM (%)
Quick note: give the figure in %, leave out the unit.

- COMPOUND: "COc1cccc(N2CCN(CC3CCN(c4ncnc5cc(OC)c(OC)cc45)C3)CC2)c1 (centres unmarked) [PQA-AZ4]"
  ENDPOINT_LABEL: "viability at 48 h, 75 µM"
  DATA_VALUE: 19.9

Attention now shifts to the item below.
Looking for the measured viability at 48 h, 75 µM of COc1cc2ncnc(N3CCC(CN4CCN(c5ccc(Cl)cc5)CC4)C3)c2cc1OC (centres unmarked) [PQA-AZ6] , can you help?
84

---

# PROCEDURE_SUMMARY: Pharmacokinetics and brain uptake after i.v. and i.g. administration
# Type: in vivo, male Wistar rats
# CONDITION_PARAMETERS: male, Wistar, po; rat, i.g. 2 mg/kg, plasma
ENDPOINT_LABEL: MRT (h)
# number only, unit h dropped from output

- MOLECULE: "COc1cc2ncnc(N3CCC(CN4CCN(c5ccc(Cl)cc5)CC4)C3)c2cc1OC (centres unmarked)"
  DATA_VALUE: 1.11

Lab note: next molecule to report on.
Tell me the measured MRT of COc1cccc(N2CCN(CC3CCN(c4ncnc5cc(OC)c(OC)cc45)C3)CC2)c1 (centres unmarked) , please.
1.38

---

Measured Kp accompanies every entry in the list below.
# PROCEDURE_SUMMARY: Pharmacokinetics and brain uptake after i.v. and i.g. administration
# Type: in vivo, male Wistar rats
# CONDITION_PARAMETERS: male, Wistar, rat, brain/plasma, po, 2 mg/kg, i.g. 2 mg/kg, read-out: Brain/Plasma ratio
Could you respond with only the numeric value?

- MOLECULE: "COc1cccc(N2CCN(CC3CCN(c4ncnc5cc(OC)c(OC)cc45)C3)CC2)c1 (centres unmarked)"
  Kp: 5.7

Which Kp value belongs to COc1cc2ncnc(N3CCC(CN4CCN(c5ccc(Cl)cc5)CC4)C3)c2cc1OC (centres unmarked) ?
5.3

---

# PROCEDURE_SUMMARY: Pharmacokinetics and brain uptake after i.v. and i.g. administration
# Assay type: in vivo, male Wistar rats
# CONDITION_PARAMETERS: male, Wistar, rat, plasma, po, 2 mg/kg, i.g. 2 mg/kg
ENDPOINT_LABEL: Tmax (min)
# unit: min | format: bare number

Quick check: Tmax of COc1cc2ncnc(N3CCC(CN4CCN(c5ccc(Cl)cc5)CC4)C3)c2cc1OC (centres unmarked) ?
15

---

# PROCEDURE_SUMMARY: Pharmacokinetics and brain uptake after i.v. and i.g. administration
# Assay type: in vivo, male Wistar rats
# CONDITION_PARAMETERS: male, Wistar, po; rat, i.g. 2 mg/kg, brain
ENDPOINT_LABEL: Cmax

- COMPOUND: "COc1cc2ncnc(N3CCC(CN4CCN(c5ccc(Cl)cc5)CC4)C3)c2cc1OC (centres unmarked)"
  ENDPOINT_LABEL: "Cmax"
  DATA_VALUE: "342 ng/g"

What value of measured Cmax is listed for COc1cccc(N2CCN(CC3CCN(c4ncnc5cc(OC)c(OC)cc45)C3)CC2)c1 (centres unmarked) ?
71.4 ng/g
